assay: in vivo; conditions: male, Dutch Belted, rabbit, 0.05 mg/eye, Calculated Concentration in retina
Where a SMILES comes first, the peptide text is derived from it.
measure: tissue level at time at 240 h

# tissue level at time at 240 h lookup, item CC[C@H](C)[C@H](NC(=O)[C@H](Cc1ccc(O)cc1)NC(=O)[C@H](CC(N)=O)NC(=O)[C@@H](NC(=O)[C@H](C)NC(=O)CNC(=O)[C@H](CC(C)C)NC(=O)[C@H](Cc1ccc(O)cc1)NC(=O)[C@@H](NC(=O)[C@H](Cc1cnc[nH]1)NC(=O)[C@@H](N)Cc1cnc[nH]1)[C@@H](C)CC)C(C)C)C(=O)N[C@@H](Cc1ccc(O)cc1)C(N)=O [Compound 1] (H-HHIYLGAVNYIY-NH2)
109 ng/g
